# Tested on: HIV-1 RF
# protocol_text: Antiviral assay, Experimental Protocol I (compound added after infection)
# Assay type: cell-based
# recorded_conditions: Human immunodeficiency virus 1, 240 h, 10% FCS, 1.25 μg/ml, p24 ELISA, read-out: % Inhibition (after day 10)
Measured inhibition at 1.25 µg/mL values are reported for all entries that follow.
Express it in %; write the number only.

structure_smiles	target_desc	inhibition at 1.25 µg/mL (%)
COc1cc(N=Nc2c(S(=O)(=O)O)cc3cc(S(=O)(=O)O)cc(NC(=O)c4cccc5ccccc45)c3c2O)c(OC)cc1N=Nc1c(S(=O)(=O)O)cc2cc(S(=O)(=O)O)cc(NC(=O)c3ccc(Cl)cc3Cl)c2c1O	HIV-1 RF	100
COc1cc(N=Nc2c(S(=O)(=O)O)cc3cc(S(=O)(=O)O)cc(NC(=O)c4cc(Cl)ccc4Cl)c3c2O)c(OC)cc1N=Nc1c(S(=O)(=O)O)cc2cc(S(=O)(=O)O)cc(NC(=O)c3cc(Cl)ccc3Cl)c2c1O	HIV-1 RF	99
COc1cc(N=Nc2c(S(=O)(=O)O)cc3cc(S(=O)(=O)O)cc(NC(=O)c4cccc(Cl)c4Cl)c3c2O)c(OC)cc1N=Nc1c(S(=O)(=O)O)cc2cc(S(=O)(=O)O)cc(NC(=O)Cc3ccccc3)c2c1O	HIV-1 RF	60

The compound CCC(C)(C)c1ccc(OCC(=O)Nc2cc(S(=O)(=O)O)cc3cc(S(=O)(=O)O)c(N=Nc4cc(OC)c(N=Nc5c(O)ccc6ccc(S(=O)(=O)O)cc56)cc4OC)c(O)c23)c(C(C)(C)CC)c1 showed inhibition at 1.25 µg/mL equal to 0

* * *

# System: TA98, TA1535, TA1537, TA1538, TA100 and W2P2uvr
# protocol_text: Ames Test (in the presence of S9)
# Format: cell-based, Salmonella typhimurium
value_kind: Ames Test result

Use these answered entries as a reference point.
molecule	Ames Test result
COc1cc(N=Nc2c(S(=O)(=O)O)cc3cc(S(=O)(=O)O)cc(NC(=O)c4cc(Cl)ccc4Cl)c3c2O)c(OC)cc1N=Nc1c(S(=O)(=O)O)cc2cc(S(=O)(=O)O)cc(NC(=O)c3ccc(Cl)c(Cl)c3)c2c1O	Negative
COc1cc(N=Nc2c(S(=O)(=O)O)cc3cc(S(=O)(=O)O)cc(NC(=O)c4cccc5ccccc45)c3c2O)c(OC)cc1N=Nc1c(S(=O)(=O)O)cc2cc(S(=O)(=O)O)cc(NC(=O)c3ccc(C(F)(F)F)cc3)c2c1O	Negative
Cc1cc(-c2ccc(/N=N/c3ccc4c(S(=O)(=O)O)cc(S(=O)(=O)O)c(N)c4c3O)c(C)c2)ccc1/N=N/c1ccc2c(S(=O)(=O)O)cc(S(=O)(=O)O)c(N)c2c1O [Evans Blue, reference compound]	Positive
O=C(Nc1cc(S(=O)(=O)O)cc2cc(S(=O)(=O)O)c(N=Nc3ccc(N=Nc4c(S(=O)(=O)O)cc5cc(S(=O)(=O)O)cc(NC(=O)c6cccc(Cl)c6Cl)c5c4O)c(Cl)c3)c(O)c12)c1ccc(Cl)cc1Cl	Negative

The molecule COc1cc(N=Nc2c(S(=O)(=O)O)cc3cc(S(=O)(=O)O)cc(NC(=O)c4cccc(Cl)c4Cl)c3c2O)c(OC)cc1N=Nc1c(S(=O)(=O)O)cc2cc(S(=O)(=O)O)cc(NC(=O)c3cc(Cl)ccc3Cl)c2c1O showed Ames Test result equal to Negative

The molecule COc1cc(N=Nc2c(S(=O)(=O)O)cc3cc(S(=O)(=O)O)cc(NC(=O)c4ccc(Cl)c(Cl)c4)c3c2O)c(OC)cc1N=Nc1c(S(=O)(=O)O)cc2cc(S(=O)(=O)O)cc(NC(=O)c3ccc(Cl)c(Cl)c3)c2c1O showed Ames Test result equal to Negative

The molecule COc1cc(N=Nc2c(S(=O)(=O)O)cc3cc(S(=O)(=O)O)cc(NC(=O)Nc4cccc5ccccc45)c3c2O)c(OC)cc1N=Nc1c(S(=O)(=O)O)cc2cc(S(=O)(=O)O)cc(NC(C)=O)c2c1O showed Ames Test result equal to Positive

The molecule COc1cc(N=Nc2c(O)ccc3ccc(S(=O)(=O)O)cc23)c(OC)cc1N=Nc1c(S(=O)(=O)O)cc2cc(S(=O)(=O)O)cc(NC(=O)c3ccc4ccccc4c3)c2c1O showed Ames Test result equal to Negative

The molecule CCC(C)(C)c1ccc(OCC(=O)Nc2cc(S(=O)(=O)O)cc3cc(S(=O)(=O)O)c(N=Nc4cc(OC)c(N=Nc5c(S(=O)(=O)O)cc6cc(S(=O)(=O)O)cc(NC(=O)c7ccc(Cl)cc7Cl)c6c5O)cc4OC)c(O)c23)c(C(C)(C)CC)c1 showed Ames Test result equal to Negative

The molecule COc1cc(N=Nc2c(O)ccc3ccc(S(=O)(=O)O)cc23)c(OC)cc1N=Nc1c(S(=O)(=O)O)cc2cc(S(=O)(=O)O)cc(NC(=O)c3cccc(C(F)(F)F)c3)c2c1O showed Ames Test result equal to Negative

The molecule COc1cc(N=Nc2c(S(=O)(=O)O)cc3cc(S(=O)(=O)O)cc(NC(=O)c4cccc5ccccc45)c3c2O)c(OC)cc1N=Nc1c(S(=O)(=O)O)cc2cc(S(=O)(=O)O)cc(NC(=O)c3ccc(Cl)cc3Cl)c2c1O showed Ames Test result equal to Negative

* * *

# protocol_text: LD50, intravenous, mice
# Assay type: in vivo
# recorded_conditions: mouse, in vivo, female mice, mortalities within 1 week
# Description: The test material was administered intravenously to 5 female mice in five increasing doses. Mortalities were recorded within 1 week, and the LD50 was determined with the aid of statistical calculations.
value_kind: LD50 at 168 h (mg/kg)
Express it in mg/kg; write the number only.

structure_smiles	value_kind	endpoint_result
CCC(C)(C)c1ccc(OCC(=O)Nc2cc(S(=O)(=O)O)cc3cc(S(=O)(=O)O)c(N=Nc4cc(OC)c(N=Nc5c(S(=O)(=O)O)cc6cc(S(=O)(=O)O)cc(NC(=O)c7ccc(Cl)cc7Cl)c6c5O)cc4OC)c(O)c23)c(C(C)(C)CC)c1	LD50 at 168 h	150
COc1cc(N=Nc2c(S(=O)(=O)O)cc3cc(S(=O)(=O)O)cc(NC(=O)c4ccc(Cl)cc4Cl)c3c2O)c(OC)cc1N=Nc1c(S(=O)(=O)O)cc2cc(S(=O)(=O)O)cc(NC(=O)Cc3cccc4ccccc34)c2c1O	LD50 at 168 h	150
COc1cc(N=Nc2c(S(=O)(=O)O)cc3cc(S(=O)(=O)O)cc(NC(=O)c4cccc(Cl)c4Cl)c3c2O)c(OC)cc1N=Nc1c(S(=O)(=O)O)cc2cc(S(=O)(=O)O)cc(NC(=O)c3ccc(Cl)cc3Cl)c2c1O	LD50 at 168 h	130

As a next step, examine the molecule that follows.
The molecule COc1cc(N=Nc2c(S(=O)(=O)O)cc3cc(S(=O)(=O)O)cc(NC(=O)c4cccc(Cl)c4Cl)c3c2O)c(OC)cc1N=Nc1c(S(=O)(=O)O)cc2cc(S(=O)(=O)O)cc(NC(=O)c3cccc(Cl)c3Cl)c2c1O showed LD50 at 168 h equal to 160

* * *

# System: HIV-1 RF
# protocol_text: Antiviral assay, Experimental Protocol I (compound added after infection)
# Assay type: cell-based
# recorded_conditions: Human immunodeficiency virus 1, 240 h, 50% Human Serum, 5 μg/ml, p24 ELISA, read-out: % Inhibition (after day 10)
value_kind: inhibition at 5 µg/mL
The answer consists of two parts: a number and, after it, its unit.

Use these answered entries as a reference point.
compound	inhibition at 5 µg/mL
COc1cc(N=Nc2c(S(=O)(=O)O)cc3cc(S(=O)(=O)O)cc(NC(=O)c4cccc(Cl)c4Cl)c3c2O)c(OC)cc1N=Nc1c(S(=O)(=O)O)cc2cc(S(=O)(=O)O)cc(NC(=O)c3cccc(Cl)c3Cl)c2c1O [Compound 8]	95%
COc1cc(N=Nc2c(S(=O)(=O)O)cc3cc(S(=O)(=O)O)cc(NC(=O)c4ccc(Cl)cc4Cl)c3c2O)c(OC)cc1N=Nc1c(S(=O)(=O)O)cc2cc(S(=O)(=O)O)cc(NC(=O)c3ccc(Cl)cc3Cl)c2c1O [Compound 11]	98%
COc1cc(N=Nc2c(S(=O)(=O)O)cc3cc(S(=O)(=O)O)cc(NC(=O)c4cc(Cl)ccc4Cl)c3c2O)c(OC)cc1N=Nc1c(S(=O)(=O)O)cc2cc(S(=O)(=O)O)cc(NC(=O)c3cc(Cl)ccc3Cl)c2c1O [Compound 7]	97%
COc1cc(N=Nc2c(S(=O)(=O)O)cc3cc(S(=O)(=O)O)cc(NC(=O)c4cc(Cl)ccc4Cl)c3c2O)c(OC)cc1N=Nc1c(S(=O)(=O)O)cc2cc(S(=O)(=O)O)cc(NC(=O)c3ccc(Cl)c(Cl)c3)c2c1O [Compound 12]	93%
COc1cc(N=Nc2c(S(=O)(=O)O)cc3cc(S(=O)(=O)O)cc(NC(=O)c4cccc(Cl)c4Cl)c3c2O)c(OC)cc1N=Nc1c(S(=O)(=O)O)cc2cc(S(=O)(=O)O)cc(NC(=O)c3ccc(Cl)cc3Cl)c2c1O [Compound 6]	100%

As a next step, examine the compound that follows.
The compound COc1cc(N=Nc2c(S(=O)(=O)O)cc3cc(S(=O)(=O)O)cc(NC(=O)c4cccc(Cl)c4Cl)c3c2O)c(OC)cc1N=Nc1c(S(=O)(=O)O)cc2cc(S(=O)(=O)O)cc(NC(=O)c3cc(Cl)ccc3Cl)c2c1O [Compound 9] showed inhibition at 5 µg/mL equal to 90%
